Answer each item with its documented cell count.
procedure-summary: sensitizers of A549 cells to miR-34 induction, primary screen, imaging, A549 dox-inducible miR-34, nuclei and caspase counts (AID 1347080); further: test concentration not given here
applied-conditions: A549 miR-34 inducible, Hoechst nuclei count, 48 h; measured here: total cells with miR-34 induction; stronger effect = lower value

>>> reading("O=Cc1cn(Cc2ccc(Cl)cc2)c2ccccc12")
4020

Need cell count for each of these compounds.
1. CN(C)[C@@H]1C(=O)C(C(N)=O)=C(O)[C@@]2(O)C(=O)C3=C(O)c4c(O)ccc(Cl)c4[C@@](C)(O)[C@H]3C[C@@H]12
2. C=CCN1CC[C@]23c4c5ccc(O)c4O[C@H]2/C(=N/NC(=O)c2ccccc2)CC[C@@]3(O)[C@H]1C5

1: 9350; 2: 9120

FYI, the data here is from PubChem BioAssay.
